The origin of these recorded values is ChEMBL document CHEMBL2311405.

system: OVCAR-3; assay: Growth inhibition of human OVCAR3 cells; format: functional
readout_type: GI50 (µM)
Only the number, expressed in µM, is required.

COc1ccc2c(c1)C(=O)c1c-2n(CCCN)c(=O)c2cc(I)ccc12    1.32
COC(=O)CCCCC(=O)Nc1ccc2c3c(n(CCCN)c(=O)c2c1)-c1ccccc1C3=O    3.52

Read the next record carefully.
Lookup: Could you tell me which GI50 is on file for `CCOC(=O)CNc1ccc2c3c(n(CCCN)c(=O)c2c1)-c1ccccc1C3=O` ?
Found: 3.12

* * *

tested on: SF-539; test: Growth inhibition of human SF539 cells; assay type: functional
readout_type: GI50 (µM)
Only the number, expressed in µM, is required.

Lookup: Could you tell me which GI50 is on file for `NCCCn1c2c(c3ccc(NCC(=O)O)cc3c1=O)C(=O)c1ccccc1-2` ?
Found: 1.79

Lookup: Could you tell me which GI50 is on file for `COC(=O)C(=O)Nc1ccc2c3c(n(CCCN)c(=O)c2c1)-c1ccccc1C3=O` ?
Found: 6.9

Lookup: Could you tell me which GI50 is on file for `COC(=O)CCCC(=O)Nc1ccc2c3c(n(CCCN)c(=O)c2c1)-c1ccccc1C3=O` ?
Found: 1.47

Lookup: Could you tell me which GI50 is on file for `CN(C)CCCn1c2c(c3ccc(C#N)cc3c1=O)C(=O)c1ccccc1-2` ?
Found: 1.12

Lookup: Could you tell me which GI50 is on file for `COc1ccc2c(c1)-c1c(c3ccc([N+](=O)[O-])cc3c(=O)n1CCCN)C2=O` ?
Found: 0.61

Lookup: Could you tell me which GI50 is on file for `COc1ccc2c(c1)C(=O)c1c-2n(CCCN)c(=O)c2cc(I)ccc12` ?
Found: 0.39

Lookup: Could you tell me which GI50 is on file for `COc1ccc2c(c1)C(=O)c1c-2n(CCCN)c(=O)c2cc(N)ccc12` ?
Found: 0.03

Lookup: Could you tell me which GI50 is on file for `NCCCn1c2c(c3ccc(N)cc3c1=O)C(=O)c1ccccc1-2` ?
Found: 0.34

Lookup: Could you tell me which GI50 is on file for `COC(=O)CC(=O)Nc1ccc2c3c(n(CCCN)c(=O)c2c1)-c1ccccc1C3=O` ?
Found: 4.03

Lookup: Could you tell me which GI50 is on file for `COC(=O)CCCCC(=O)Nc1ccc2c3c(n(CCCN)c(=O)c2c1)-c1ccccc1C3=O` ?
Found: 5.65

Lookup: Could you tell me which GI50 is on file for `CCOC(=O)CNc1ccc2c3c(n(CCCN)c(=O)c2c1)-c1ccccc1C3=O` ?
Found: 8.91

* * *

biological target: DNA topoisomerase 1 (Homo sapiens) (UniProt P11387); experiment: Inhibition of recombinant Top1 (unknown origin) using 3'-[32P]-end-labeled 117 bp oligonucleotide as substrate after 20 mins by SDS-PAGE analysis relative to 1 uM MJ-3-65
Sequence (P11387 whole entry): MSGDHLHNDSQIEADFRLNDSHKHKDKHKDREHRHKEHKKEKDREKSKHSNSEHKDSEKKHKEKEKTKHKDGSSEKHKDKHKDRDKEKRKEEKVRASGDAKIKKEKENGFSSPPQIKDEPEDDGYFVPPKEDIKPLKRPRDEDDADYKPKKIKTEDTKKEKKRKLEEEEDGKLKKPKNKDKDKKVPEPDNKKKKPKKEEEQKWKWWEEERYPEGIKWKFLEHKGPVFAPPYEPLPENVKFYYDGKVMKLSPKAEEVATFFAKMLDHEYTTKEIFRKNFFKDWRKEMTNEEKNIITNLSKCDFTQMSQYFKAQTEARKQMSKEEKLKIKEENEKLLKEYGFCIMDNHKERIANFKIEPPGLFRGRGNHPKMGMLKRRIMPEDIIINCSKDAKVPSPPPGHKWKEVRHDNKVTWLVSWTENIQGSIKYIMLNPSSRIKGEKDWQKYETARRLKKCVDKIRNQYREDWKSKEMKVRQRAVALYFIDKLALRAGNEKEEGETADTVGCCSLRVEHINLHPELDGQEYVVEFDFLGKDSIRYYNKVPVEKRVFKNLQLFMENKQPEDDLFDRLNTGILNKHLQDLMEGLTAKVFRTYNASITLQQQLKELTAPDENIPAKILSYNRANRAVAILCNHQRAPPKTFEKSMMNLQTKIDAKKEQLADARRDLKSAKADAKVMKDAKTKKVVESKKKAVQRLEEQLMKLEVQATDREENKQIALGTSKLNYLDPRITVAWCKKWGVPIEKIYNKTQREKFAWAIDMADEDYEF
Calls of active or inactive are those of the source. The rule behind the calls is not given here.
readout_type: inhibition

Cn1c2c(c3ccc(NC(=O)C(=O)O)cc3c1=O)C(=O)c1ccccc1-2    Active
CN(C)CCCn1c2c(c3ccc(C#N)cc3c1=O)C(=O)c1ccccc1-2    Active
COc1ccc2c(c1)-c1c(c3ccc([N+](=O)[O-])cc3c(=O)n1CCCN)C2=O    Active
